Listing of entries alongside the reported GI50.
# Test system: K562
# Protocol Details: NCI tumour cell line growth inhibition, 48 h
Calls of active or inactive are those of the source. No stated cut-off is given here; in the data, active = GI50 up to about 1.1 µM and inactive = higher.

Study these solved cases before continuing.
Record request: GI50 value, item c1ccc2cc3c(NC4=NCCO4)cccc3cc2c1 37.2 µM (inactive)

Record request: GI50 value, item Nc1ccc2c(c1)Oc1c(F)c(F)cc3c(=O)c(C(=O)O)cn-2c13 59.6 µM (inactive)

Record request: GI50 value, item O=C(O)C(Cc1ccc(O)cn1)NC(=O)C(F)(F)F (stereo not given) > 100 µM (inactive)

Further cases:
Record request: GI50 value, item CC(=O)OC/C=C\Cn1ncc(=O)[nH]c1=O 23 µM (inactive)

Record request: GI50 value, item CC(=O)NNc1nc(C)c(C(/C=C/c2ccc(Cl)cc2)=N/NC(=S)NN)s1 > 100 µM (inactive)

Record request: GI50 value, item C[Si](C)(C)OC1(C#N)c2ccccc2CCCC12CCCC2 (stereo not given) 34.7 µM (inactive)

Record request: GI50 value, item CC(C)=CC(=O)Cc1nc2cc(C)c(C)cc2[nH]c1=O > 100 µM (inactive)

Record request: GI50 value, item Clc1ccccc1C1=NN(c2ccccc2)C2c3ccccc3OCC12 (stereo not given) 44.3 µM (inactive)
